Note to self: these molecules have pIC50 reported for ALK tyrosine kinase receptor (Homo sapiens) in various publications.
pIC50: −log10 of the molar value.

The following molecules have reported results that may help.
1) Cc1cc(Nc2ncc(Cl)c(Nc3ccccc3N(C)S(C)(=O)=O)n2)c(OCC(F)(F)F)cc1C1=CCN(C2CCOCC2)CC1
9.30
2) Cc1ccc(Cl)cc1OC[C@H](O)CNc1ccnc(O)c1-c1nc2cc3c(cc2[nH]1)C(=O)N(C1CCN(C)CC1)C3=O
5.30 to 6.30

## Input Supply pIC50 value. Item: N#Cc1c(-c2ccc(O)cc2F)nc2[nH]nc(-c3ccc([N+](=O)[O-])cc3)c2c1-c1ccc(N2CCNCC2)cc1
## Output 6.00 to 7.00

* * *

# merged literature set: IC50 with ALK tyrosine kinase receptor (Homo sapiens, UniProt Q9UM73)

1. O=C(c1cc(F)ccc1F)N1CCNc2ncc(I)cc21
> 100000 nM
2. CC(c1cc(F)ccc1F)N1C(=O)CNc2ncc(-c3ccc(C(=O)N4CCC[C@H]4CN4CCCC4)cc3)cc21 (stereo partly drawn)
100 to 1000 nM
3. O=C(NC1CCN(Cc2ccccc2)C1)c1cccc(-c2cnc3c(c2)N(Cc2cc(Cl)ccc2C(F)(F)F)CCN3)c1 (stereo not drawn)
< 100 nM
4. CCCN1CCC=C(c2ccc(Nc3nc(Nc4cc(F)c(F)cc4C(N)=O)c4cc[nH]c4n3)c(OC)c2)C1
0.251 to 1 nM
5. CN1CCC(N2Cc3cc4nc(-c5c(NC[C@@H](O)COc6ccccc6C(F)(F)F)cc[nH]c5=O)[nH]c4cc3C2=O)CC1
< 500 nM

Shifting focus to the compound that follows.
## Input Identify the reported IC50 for the following entry. CN1CCC(N2C(=O)c3cc4nc(-c5c(NC[C@H](O)COc6ccc(F)cc6)cc[nH]c5=O)[nH]c4cc3C2=O)CC1
## Output 500 to 5000 nM

* * *

Here is a set of compounds with reported IC50 for UniProt:Q9UM73, compiled from the literature.

// below: answered compounds
1. O=C(NCc1cccnc1)c1cccc(-c2cnc3c(c2)N(Cc2cc(Cl)ccc2C(F)(F)F)CCN3)c1
0.1 to 1 µM
2. Cn1cc(-c2cnc3c(c2)N(Cc2cc(Cl)ccc2C(F)(F)F)CCN3)cn1
0.1 to 1 µM
3. COC(=O)c1c[nH]c2c(=O)[nH]c3ccc(S(=O)(=O)NC4CCNCC4)cc3c12
1 to 10 µM
4. CN1CCC(N2C(=O)c3cc4nc(-c5c(NC[C@@H](O)COc6cccnc6)ccnc5O)[nH]c4cc3C2=O)CC1
5 to 15 µM
5. N#Cc1c(-c2ccc(O)cc2F)nc2[nH]nc(N)c2c1-c1ccc(OCCCN2CCCCC2)cc1
0.1 to 1 µM

## Input Identify measured IC50 associated with Cc1ccc(OCC(O)CNc2ccnc(O)c2-c2nc3cc4c(cc3[nH]2)C(=O)N(CC(C)(C)CN(C)C)C4=O)c(C)c1 (stereo not shown)
## Output 5 to 15 µM

## Input Please list IC50 recorded for the compound O=C1CNc2ncc(I)cc2N1Cc1ccc(C(F)(F)F)o1
## Output 10 to 100 µM

## Input Give me measured IC50, please, for this compound: Cc1cnc(Nc2ccc(N3CCS(=O)(=O)CC3)cc2)nc1Nc1ccc2cn[nH]c2c1
## Output 0.186 µM

## Input Indicate the recorded IC50 value for this compound: FC(F)(F)c1ccc(Cl)cc1CN1CCNc2ncc(-c3cc[nH]c3)cc21
## Output 0.1 to 1 µM

## Input Assign IC50 to the following record: CN1CCN(C(=O)c2ccc(-c3cnc4c(c3)N(Cc3cc(F)ccc3F)CC(C)(C)N4)cc2)CC1
## Output 10 to 100 µM

## Input Give me measured IC50, please, for this compound: O=C(c1ccc(-c2cnc3c(c2)N(Cc2cc(Cl)ccc2C(F)(F)F)CCN3)cc1)N1CCCC1c1cccnc1 (stereo not shown)
## Output 0.1 to 1 µM

## Input Provide measured IC50 value, entry: Cc1n[nH]c2nc(-c3ccc(O)cc3F)c(C#N)c(C(=O)NCCN3CCOCC3)c12
## Output 1 to 10 µM

## Input Provide measured IC50 value, entry: CC(C)(C)OC(=O)NCC#Cc1cnc2c(c1)N(Cc1cc(Cl)ccc1Cl)CCN2
## Output 1 to 10 µM

## Input Quickly give me recorded IC50 for CCNC(=O)Cn1nc(C)c2c1COCCOc1c(cnn1C)-c1ccc3[nH]nc(c3c1)/C=C/2
## Output 0.029 µM

## Input Give reported IC50 value for CCOc1nn(CCO)c2c1/C=C/c1n[nH]c3cc(F)c(cc13)-c1cnn(C)c1O[C@@H](C)CN(CC)C2
## Output 0.00182 µM

## Input Could you please provide reported IC50 for CN1CCC(NC(=O)c2ccc(-c3cnc4c(c3)N(Cc3cc(Cl)ccc3C(F)(F)F)CCN4)cc2)CC1 ? Thanks!
## Output < 0.1 µM

* * *

pIC50: −log10 of the molar value.
Across several studies, molecules have been characterized by their pIC50 on ALK tyrosine kinase receptor (Homo sapiens, UniProt Q9UM73); a selection follows.

Completed entries (count: 10):
1) Cc1ccc(NC(=O)CN2CCCC2)cc1Nc1nc(Nc2ccccc2C(N)=O)c2cc[nH]c2n1
8.40 to 8.90
2) CN1CCN(C(=O)c2ccc(-c3cnc4c(c3)N(Cc3cc(F)c(F)cc3F)CCN4)cc2)CC1
5.00 to 6.00
3) Cc1n[nH]c2cc(-c3ccc(O)cc3F)c(C#N)c(-c3ccc(CN)o3)c12
6.00 to 7.00
4) COc1cc2c(cc1Nc1nc(Nc3cc(Cl)cc(F)c3C(N)=O)c3cc[nH]c3n1)N(C(=O)CN(C)C)CCC2
9.00 to 9.60
5) Cc1ccc(OC[C@H](O)CNc2cc[nH]c(=O)c2-c2nc3cc4c(cc3[nH]2)C(=O)N(C2CCN(C)CC2)C4=O)cc1Cl
4.82 to 5.30
6) CNC(=O)c1c(F)cccc1Nc1nc(Nc2cc3c(cc2OC)CCN3C(=O)[C@@H]2CCCN2C)nc2[nH]ccc12
6.70 to 8.30
7) Fc1ccc(F)c(CN2CCNc3ncc(-c4cnc(N5CCOCC5)nc4)cc32)c1Cl
> 7.00
8) N#Cc1c(-c2ccc(O)cc2)nc2[nH]nc(N)c2c1-c1ccc(N2CCNCC2)cc1
5.00 to 6.00
9) O=C(c1ccc(-c2cnc3c(c2)N(Cc2cc(Cl)ccc2C(F)(F)F)CCN3)cc1)N1CCC(n2c(=O)[nH]c3ccccc32)CC1
6.00 to 7.00
10) Cc1c2c(nn1C)CN(C)C[C@H](C)Oc1c(cnn1C)-c1ccc3[nH]nc(c3c1)/C=C/2
8.32

## Input Specify pIC50 for CN1CCC(N2C(=O)c3cc4nc(-c5c(NC[C@@H](O)COc6cccc(Cl)c6F)cc[nH]c5=O)[nH]c4cc3C2=O)CC1 , system ALK tyrosine kinase receptor (Homo sapiens, UniProt Q9UM73).
## Output < 4.82

## Input Fill in: pIC50 on ALK tyrosine kinase receptor (Homo sapiens, UniProt Q9UM73), entry O=C(NC1CCCCC1)c1cnc2c(c1)N(Cc1cc(Cl)ccc1Cl)CCN2
## Output 5.00 to 6.00

## Input Report its pIC50 with ALK tyrosine kinase receptor (Homo sapiens, UniProt Q9UM73) as the test system: Fc1ccc(F)c(CN2CCNc3ncc(I)cc32)c1
## Output 5.00 to 6.00

## Input Quote pIC50 with test system ALK tyrosine kinase receptor (Homo sapiens, UniProt Q9UM73) for CNC(=O)c1c(F)cccc1Nc1nc(Nc2cc3c(cc2OC)C(C)(C)CN3C(=O)CN(C)C)nc2[nH]ccc12
## Output 9.00 to 9.60

* * *

# IC50 against ALK tyrosine kinase receptor (Homo sapiens, UniProt Q9UM73), merged from multiple literature sources

1) Cc1cc(Nc2ncc(Cl)c(Nc3ccccc3N(C)S(C)(=O)=O)n2)c(OC(C)C)cc1C1=CCN(C2CCOCC2)CC1
1.1 nM
2) c1ccc(CN2CCNc3ncccc32)cc1
> 100000 nM
3) CCN1CCC(Nc2ccc3c(c2)/C(=C(\c2ccc(F)cc2)c2ncc[nH]2)C(=O)N3)CC1
50 to 500 nM

Now, please, on to the next compound.
## Input Give the reported IC50 for this compound. O=C1CNc2ncc(-c3cccnc3)cc2N1Cc1ccccc1
## Output 10000 to 100000 nM

* * *

Assay read-out IC50 on ALK tyrosine kinase receptor (Homo sapiens, UniProt Q9UM73); records merged from the literature.

1) COc1ccc(-c2n[nH]c3nc(-c4ccc(O)cc4F)c(C#N)c(-c4ccc(N5CCNCC5)cc4)c23)cc1
< 0.1 µM
2) CN1CCC(N2C(=O)c3cc4nc(-c5c(NCC(O)COc6ccccc6)cc[nH]c5=O)[nH]c4cc3C2=O)CC1 (centres unmarked)
5 to 15 µM
3) COc1c(Nc2nc(Nc3cccc(F)c3C(N)=O)c3cc[nH]c3n2)ccc(N2CCN(C(C)C)CC2)c1C
0.00126 to 0.00398 µM
4) CN1CCC(N2C(=O)c3cc4nc(-c5c(NC[C@@H](O)c6cccc(Cl)c6)cc[nH]c5=O)[nH]c4cc3C2=O)CC1
0.5 to 5 µM
5) O=C(NCCc1cccs1)c1cnc2c(c1)N(Cc1cc(Cl)ccc1Cl)CCN2
0.1 to 1 µM
6) Cc1ccc(OC[C@H](O)CNc2cc[nH]c(=O)c2-c2nc3cc4c(cc3[nH]2)CN(C2CCN(C)CC2)C4=O)c(C)c1
0.5 to 5 µM
7) COc1cc2c(cc1Nc1nc(Nc3cccc(F)c3C(N)=O)c3cc[nH]c3n1)CN(C(=O)CCN1CCOCC1)CC2
0.00501 to 0.2 µM
8) CN1CCN(c2ccc(-c3cnc4c(c3)C(Cc3cc(F)ccc3F)CCN4)cn2)CC1 (centres unmarked)
1 to 10 µM
9) CN1CCC(N2Cc3cc4[nH]c(-c5c(NC[C@@H](O)COc6c(F)cc(F)cc6Br)cc[nH]c5=O)nc4cc3C2=O)CC1
0.5 to 5 µM
10) COc1cccc(OCC(O)CNc2cc[nH]c(=O)c2-c2nc3cc4c(cc3[nH]2)C(=O)N(C2CCN(C)CC2)C4=O)c1 (centres unmarked)
0.5 to 5 µM

## Input Query IC50 for O=C(c1ccc(-c2cnc3c(c2)N(Cc2cc(Cl)ccc2C(F)(F)F)CCN3)cc1)N1CCN(c2ccc(Cl)cc2)CC1
## Output 0.1 to 1 µM

## Input Provide IC50 value for the following compound: CN1CCC(N2C(=O)c3cc4nc(-c5c(NCC(O)COc6cccc(Cl)c6)cc[nH]c5=O)[nH]c4cc3C2=O)CC1 (centres unmarked)
## Output 0.5 to 5 µM

## Input Note down IC50 recorded for O=C(c1cnc2c(c1)N(Cc1cc(Cl)ccc1Cl)CCN2)N1CCCC1c1cccnc1 (centres unmarked)
## Output 1 to 10 µM

## Input Supply recorded IC50 for CCC(C)N1CCc2cc(OC)c(Nc3nc(Nc4cccc(F)c4C(N)=O)c4cc[nH]c4n3)cc2C1 (centres unmarked) here.
## Output 0.00126 to 0.00398 µM

## Input Read off the recorded IC50 for N#Cc1c(-c2cccc(O)c2)nc2[nH]nc(-c3cccs3)c2c1-c1ccc(N2CCNCC2)cc1
## Output 0.1 to 1 µM
